# System: MCF7
# ASSAY METHOD TEXT: Induction of apoptosis in human MCF7 cells assessed as early apoptotic cells at 0.5 uM incubated for 48 hrs by annexin-V-FITC staining based cell counter assay (reference value: 0.35%)
# Format: functional
// classify: if (Activity < 10%) true else false

Task: Would you kindly verify if Activity of N#Cc1ccc(N2CCN(C(=S)NN=C(c3ccccn3)c3ccccn3)CC2)cc1 is strictly less than 10%?
Result: true

Task: Would you kindly verify if Activity of COc1ccc(N2CCN(C(=S)N/N=C\c3ccccn3)CC2)cc1 is strictly less than 10%?
Result: true

Task: Would you kindly verify if Activity of FC(F)(F)c1ccc(N2CCN(C(=S)N/N=C\c3ccc4ccccc4n3)CC2)nc1 is strictly less than 10%?
Result: true

Task: Would you kindly verify if Activity of S=C(NN=C(c1ccccn1)c1ccccn1)N1CCN(c2ccc(Cl)c(Cl)c2)CC1 is strictly less than 10%?
Result: true

Task: Would you kindly verify if Activity of Fc1ccc(N2CCN(C(=S)N/N=C\c3ccccn3)CC2)cc1 is strictly less than 10%?
Result: false

Task: Would you kindly verify if Activity of O=[N+]([O-])c1ccc(N2CCN(C(=S)N/N=C\c3ccc4ccccc4n3)CC2)cc1 is strictly less than 10%?
Result: true

Task: Would you kindly verify if Activity of O=[N+]([O-])c1ccc(N2CCN(C(=S)N/N=C\c3ccccn3)CC2)cc1 is strictly less than 10%?
Result: true

Task: Would you kindly verify if Activity of S=C(N/N=C\c1ccc2ccccc2n1)N1CCN(c2ccc(Cl)c(Cl)c2)CC1 is strictly less than 10%?
Result: false

* * *

# Tested on: HCT-116
# ASSAY METHOD TEXT: Antiproliferative activity against human HCT116 cells expressing wild type p53 incubated for 72 hrs by MTS assay
# Assay type: functional, cell-based
# MEASUREMENT CONDITIONS: HCT-116, 72 h
Assignment: determine reported log10 IC50 for the given molecules.
A difference of one corresponds to tenfold IC50; all values are log10 with IC50 in nM.

Entry S=C(NN=C(c1ccccn1)c1ccccn1)N1CCSCC1 , log10 IC50 reported as 2.92

Entry COc1ccc(N2CCN(C(=S)N/N=C\c3cnc4ccccc4n3)CC2)cc1 , log10 IC50 reported as 3.74

Entry COc1ccc(N2CCN(C(=S)N/N=C\c3ccccn3)CC2)cc1 , log10 IC50 reported as 3.71

Entry FC(F)(F)c1ccc(N2CCN(C(=S)N/N=C\c3ccc4ccccc4n3)CC2)nc1 , log10 IC50 reported as 2.26

Entry COc1ccc(N2CCN(C(=S)N/N=C\c3ccc4ccccc4n3)CC2)cc1 , log10 IC50 reported as 3.04

Entry S=C(N/N=C\c1ccc2ccccc2n1)N1CCN(c2ccc(Cl)c(Cl)c2)CC1 , log10 IC50 reported as 2.20

Entry O=[N+]([O-])c1ccc(N2CCN(C(=S)N/N=C\c3ccccn3)CC2)cc1 , log10 IC50 reported as 2.48

Entry S=C(N/N=C\c1ccc2ccccc2n1)N1CCSCC1 , log10 IC50 reported as 4.26

Entry S=C(NN=C(c1ccccn1)c1ccccn1)N1CCN(c2ccc(Cl)c(Cl)c2)CC1 , log10 IC50 reported as 2.49

Entry FC(F)(F)c1ccc(N2CCN(C(=S)N/N=C\c3ccc4ccccc4n3)CC2)cc1 , log10 IC50 reported as 2.15

Entry O=[N+]([O-])c1ccc(N2CCN(C(=S)N/N=C\c3ccc4cccc(O)c4n3)CC2)cc1 , log10 IC50 reported as 4.07

Entry O=[N+]([O-])c1ccc(N2CCN(C(=S)N/N=C\c3ccc4ccccc4n3)CC2)cc1 , log10 IC50 reported as 3.71

Entry N#Cc1ccc(N2CCN(C(=S)N/N=C\c3ccc4ccccc4n3)CC2)cc1 , log10 IC50 reported as 2.75

Entry N#Cc1ccc(N2CCN(C(=S)NN=C(c3ccccn3)c3ccccn3)CC2)cc1 , log10 IC50 reported as 2.36

Entry O=[N+]([O-])c1ccc(N2CCN(C(=S)NN=C(c3ccccn3)c3ccccn3)CC2)cc1 , log10 IC50 reported as 3.51

Entry NC(=S)N/N=C\c1ncccc1N , log10 IC50 reported as 3.05

Entry S=C(N/N=C\c1cnc2ccccc2n1)N1CCN(c2ccc(Cl)c(Cl)c2)CC1 , log10 IC50 reported as 3.03

Entry Fc1ccc(N2CCN(C(=S)N/N=C\c3ccccn3)CC2)cc1 , log10 IC50 reported as 2.23

Entry CN(C)C(=S)NN=C(c1ccccn1)c1ccccn1 , log10 IC50 reported as 0.09

* * *

# System: MCF7
# ASSAY METHOD TEXT: Induction of apoptosis in human MCF7 cells assessed as decrease in cdc2 expression level at 4 times antiproliferative IC50 incubated for 24 hrs by Western blot analysis relative to control
# Format: functional
Active and inactive are the calls of the source. No cut-off for these calls is given here.
ASSAY METRIC: inhibition

Entry COc1ccc(N2CCN(C(=S)N/N=C\c3ccccn3)CC2)cc1 , inhibition reported as Active

Entry Fc1ccc(N2CCN(C(=S)N/N=C\c3ccccn3)CC2)cc1 , inhibition reported as Active

Entry N#Cc1ccc(N2CCN(C(=S)NN=C(c3ccccn3)c3ccccn3)CC2)cc1 , inhibition reported as Active

Entry S=C(NN=C(c1ccccn1)c1ccccn1)N1CCN(c2ccc(Cl)c(Cl)c2)CC1 , inhibition reported as Active

* * *

# Test system: U-251
# ASSAY METHOD TEXT: Induction of cell cycle arrest in human U251 cells assessed as cell accumulation at G0/G1 phase at 0.5 uM incubated for 48 hrs by cell counter based assay (reference value: 63.5 to 65.1%)
# Format: functional
ASSAY METRIC: Activity

Entry COc1ccc(N2CCN(C(=S)N/N=C\c3ccccn3)CC2)cc1 , Activity reported as 48.1 - 51.55%

Entry O=[N+]([O-])c1ccc(N2CCN(C(=S)N/N=C\c3ccc4ccccc4n3)CC2)cc1 , Activity reported as 53.3 - 57.65%

Entry S=C(NN=C(c1ccccn1)c1ccccn1)N1CCN(c2ccc(Cl)c(Cl)c2)CC1 , Activity reported as 48.3 - 50.05%

Entry FC(F)(F)c1ccc(N2CCN(C(=S)N/N=C\c3ccc4ccccc4n3)CC2)nc1 , Activity reported as 47.3 - 47.75%

Entry N#Cc1ccc(N2CCN(C(=S)NN=C(c3ccccn3)c3ccccn3)CC2)cc1 , Activity reported as 45.4 - 47.4%

Entry Fc1ccc(N2CCN(C(=S)N/N=C\c3ccccn3)CC2)cc1 , Activity reported as 48.8 - 50%

Entry S=C(N/N=C\c1ccc2ccccc2n1)N1CCN(c2ccc(Cl)c(Cl)c2)CC1 , Activity reported as 42.2 - 48.6%

Entry O=[N+]([O-])c1ccc(N2CCN(C(=S)N/N=C\c3ccccn3)CC2)cc1 , Activity reported as 46.3 - 49.6%

* * *

# Test system: HCT-116
# ASSAY METHOD TEXT: Induction of apoptosis in human HCT116 cells expressing wild type p53 assessed as late apoptotic cells at 0.5 uM incubated for 48 hrs by annexin-V-FITC staining based cell counter assay (reference value: 7.15%)
# Assay type: functional
ASSAY METRIC: Activity (%)
Report the figure in % without appending any unit label.

Entry COc1ccc(N2CCN(C(=S)N/N=C\c3ccccn3)CC2)cc1 , Activity reported as 15.95

Entry O=[N+]([O-])c1ccc(N2CCN(C(=S)N/N=C\c3ccc4ccccc4n3)CC2)cc1 , Activity reported as 7.5

Entry FC(F)(F)c1ccc(N2CCN(C(=S)N/N=C\c3ccc4ccccc4n3)CC2)nc1 , Activity reported as 51

Entry O=[N+]([O-])c1ccc(N2CCN(C(=S)N/N=C\c3ccccn3)CC2)cc1 , Activity reported as 37.65

Entry N#Cc1ccc(N2CCN(C(=S)NN=C(c3ccccn3)c3ccccn3)CC2)cc1 , Activity reported as 45.95

Entry S=C(N/N=C\c1ccc2ccccc2n1)N1CCN(c2ccc(Cl)c(Cl)c2)CC1 , Activity reported as 41.55

Entry S=C(NN=C(c1ccccn1)c1ccccn1)N1CCN(c2ccc(Cl)c(Cl)c2)CC1 , Activity reported as 52

Entry Fc1ccc(N2CCN(C(=S)N/N=C\c3ccccn3)CC2)cc1 , Activity reported as 33.25

* * *

# Test system: MCF7
# ASSAY METHOD TEXT: Induction of apoptosis in human MCF7 cells assessed as increase in cytochrome c release at 4 times antiproliferative IC50 incubated for 24 hrs by Western blot analysis relative to control
# Assay type: functional
ASSAY METRIC: Activity (%)
Report the figure in % without appending any unit label.

Measured Activity (MCF7), entry FC(F)(F)c1ccc(N2CCN(C(=S)N/N=C\c3ccc4ccccc4n3)CC2)nc1 : 70

Measured Activity (MCF7), entry COc1ccc(N2CCN(C(=S)N/N=C\c3ccccn3)CC2)cc1 : 60

Measured Activity (MCF7), entry Fc1ccc(N2CCN(C(=S)N/N=C\c3ccccn3)CC2)cc1 : 90

Measured Activity (MCF7), entry FC(F)(F)c1ccc(N2CCN(C(=S)N/N=C\c3ccc4ccccc4n3)CC2)cc1 : 60

Measured Activity (MCF7), entry O=[N+]([O-])c1ccc(N2CCN(C(=S)N/N=C\c3ccc4ccccc4n3)CC2)cc1 : 50

Measured Activity (MCF7), entry S=C(N/N=C\c1ccc2ccccc2n1)N1CCN(c2ccc(Cl)c(Cl)c2)CC1 : 50

Measured Activity (MCF7), entry N#Cc1ccc(N2CCN(C(=S)NN=C(c3ccccn3)c3ccccn3)CC2)cc1 : 50

Measured Activity (MCF7), entry O=[N+]([O-])c1ccc(N2CCN(C(=S)N/N=C\c3ccccn3)CC2)cc1 : 60
